Data provenance: ChEMBL document CHEMBL4020745

Molecular target: Peroxisome proliferator-activated receptor gamma (Homo sapiens, UniProt P37231)
Sequence (P37231 whole entry): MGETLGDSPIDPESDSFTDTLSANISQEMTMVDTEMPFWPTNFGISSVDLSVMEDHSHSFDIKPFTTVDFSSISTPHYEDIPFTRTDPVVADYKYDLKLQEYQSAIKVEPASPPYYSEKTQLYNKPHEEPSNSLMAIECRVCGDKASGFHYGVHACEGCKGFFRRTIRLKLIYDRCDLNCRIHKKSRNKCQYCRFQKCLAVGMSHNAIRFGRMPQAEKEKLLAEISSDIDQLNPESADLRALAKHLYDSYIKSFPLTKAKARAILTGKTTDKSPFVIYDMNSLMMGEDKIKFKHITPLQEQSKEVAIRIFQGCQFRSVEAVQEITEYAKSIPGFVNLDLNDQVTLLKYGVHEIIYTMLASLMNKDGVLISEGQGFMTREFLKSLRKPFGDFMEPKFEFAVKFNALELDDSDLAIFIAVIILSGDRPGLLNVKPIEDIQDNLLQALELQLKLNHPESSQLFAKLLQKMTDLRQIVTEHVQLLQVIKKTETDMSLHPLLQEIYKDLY
Experiment: Transrepression activity at human PPARgamma expressed in HEK293 cells assessed as inhibition of TNFalpha induced NF-kappaB promoter activity pretreated for 4 hrs followed by TNFalpha stimulation after 3 hrs by luciferase reporter gene assay
parameter: IC50

Reference set, count: 6
CN(CCOc1ccc(/C=C2\SC(=O)NC2=O)cc1)c1nc2ccccc2s1    13 µM
CN(CCOc1ccc(/C=C2\SC(=O)NC2=O)cc1)c1nc2ccccc2[nH]1    38 µM
CCN(CCOc1ccc(CC2SC(=O)NC2=O)cc1)c1ccccn1 (stereo unspecified)    21 µM
CN(CCOc1ccc(/C=C2\SC(=O)NC2=O)cc1)c1ccc2ccccc2c1    40 µM
CN(CCOc1ccc(CC2SC(=O)NC2=O)cc1)c1nc2ccccc2s1 (stereo unspecified)    20 µM
CCN(CCOc1ccc(CC2SC(=O)NC2=O)cc1)c1nc2ccccc2s1 (stereo unspecified)    25 µM

Proceed to the following item.
**Q:** Which IC50 value is on record for CCN(CCOc1ccc(/C=C2\SC(=O)NC2=O)cc1)c1nc2ccccc2s1 ?
**A:** 17 µM

---

Tested on: HEK293
Assay: Cytotoxicity against HEK293 cells harboring beta-galactosidase expression plasmid assessed as effect on beta-galactosidase activity
Type: cell-based
Conditions: human
parameter: Activity

Reference set, count: 4
CCN(CCOc1ccc(CC2SC(=O)NC2=O)cc1)c1ccccn1 (stereo not given)    Non-Toxic
CN(CCOc1ccc(/C=C2\SC(=O)NC2=O)cc1)c1nc2ccccc2s1    Non-Toxic
CN(CCOc1ccc(/C=C2\SC(=O)NC2=O)cc1)c1nccs1    Non-Toxic
CN(CCOc1ccc(/C=C2\SC(=O)NC2=O)cc1)c1ccc2ccccc2c1    Non-Toxic

Proceed to the following item.
**Q:** Which Activity value is on record for CN(CCOc1ccc(/C=C2\SC(=O)NC2=O)cc1)c1nc2ccccc2[nH]1 ?
**A:** Non-Toxic

---

Below is a list of entries, each paired with its recorded EC50 value.
Molecular target: Peroxisome proliferator-activated receptor gamma (Homo sapiens, UniProt P37231)
Sequence (P37231 whole entry): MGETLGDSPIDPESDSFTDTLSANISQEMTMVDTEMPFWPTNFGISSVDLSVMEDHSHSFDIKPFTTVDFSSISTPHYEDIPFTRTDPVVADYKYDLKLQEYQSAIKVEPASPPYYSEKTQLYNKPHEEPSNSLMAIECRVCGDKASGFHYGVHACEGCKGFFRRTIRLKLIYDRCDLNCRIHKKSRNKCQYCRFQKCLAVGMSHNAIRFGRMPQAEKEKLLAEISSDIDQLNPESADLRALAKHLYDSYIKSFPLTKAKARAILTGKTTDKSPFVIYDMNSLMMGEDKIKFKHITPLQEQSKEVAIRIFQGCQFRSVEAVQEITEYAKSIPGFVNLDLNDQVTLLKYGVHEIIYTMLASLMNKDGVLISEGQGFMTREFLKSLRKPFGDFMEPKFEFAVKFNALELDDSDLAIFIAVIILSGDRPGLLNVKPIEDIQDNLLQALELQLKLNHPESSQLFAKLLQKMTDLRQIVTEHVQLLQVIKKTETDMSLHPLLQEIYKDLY
Assay: Transactivation activity at Gal4 fused […] human PPARgamma LBD expressed in HEK293 cells after 24 hrs by luciferase reporter gene assay
Give your result in nM as a bare value.

CN(CCOc1ccc(CC2SC(=O)NC2=O)cc1)c1nc2ccccc2s1 (stereo unspecified)    57
CN(CCOc1ccc(/C=C2\SC(=O)NC2=O)cc1)c1ccc2ccccc2c1    1600
CC(C)N(CCOc1ccc(CC2SC(=O)NC2=O)cc1)c1nc2ccccc2s1 (stereo unspecified)    530
CN(CCOc1ccc(/C=C2\SC(=O)NC2=O)cc1)c1nc2ccccc2s1    310

Proceed to the following item.
**Q:** Fill in the recorded EC50 for this molecule, with Peroxisome proliferator-activated receptor gamma (Homo sapiens, UniProt P37231) as test system: CCN(CCOc1ccc(CC2SC(=O)NC2=O)cc1)c1ccccn1 (stereo unspecified)
**A:** 540

---

Below is a list of entries, each paired with its recorded pIC50 value.
Biological target: Peroxisome proliferator-activated receptor gamma (Homo sapiens)
Experiment: Transrepression activity at human PPARgamma expressed in HEK293 cells assessed as inhibition of TNFalpha induced NF-kappaB promoter activity pretreated for 4 hrs followed by TNFalpha stimulation after 3 hrs by luciferase reporter gene assay
Please report pIC50 as the negative decimal logarithm of the molar concentration, giving only the number.

Reference set, count: 3
CCN(CCOc1ccc(/C=C2\SC(=O)NC2=O)cc1)c1ccccn1    4.82
CN(CCOc1ccc(/C=C2\SC(=O)NC2=O)cc1)c1nccs1    4.38
O=C1NC(=O)/C(=C/c2ccc(OCCNc3nc4ccccc4s3)cc2)S1    4.85

Proceed to the following item.
**Q:** Fill in the recorded pIC50 for this compound, with Peroxisome proliferator-activated receptor gamma (Homo sapiens) as test system: CC(C)N(CCOc1ccc(CC2SC(=O)NC2=O)cc1)c1nc2ccccc2s1 (centres undefined)
**A:** 4.70

---

Biological target: Peroxisome proliferator-activated receptor gamma (Homo sapiens)
Sequence (P37231 whole entry): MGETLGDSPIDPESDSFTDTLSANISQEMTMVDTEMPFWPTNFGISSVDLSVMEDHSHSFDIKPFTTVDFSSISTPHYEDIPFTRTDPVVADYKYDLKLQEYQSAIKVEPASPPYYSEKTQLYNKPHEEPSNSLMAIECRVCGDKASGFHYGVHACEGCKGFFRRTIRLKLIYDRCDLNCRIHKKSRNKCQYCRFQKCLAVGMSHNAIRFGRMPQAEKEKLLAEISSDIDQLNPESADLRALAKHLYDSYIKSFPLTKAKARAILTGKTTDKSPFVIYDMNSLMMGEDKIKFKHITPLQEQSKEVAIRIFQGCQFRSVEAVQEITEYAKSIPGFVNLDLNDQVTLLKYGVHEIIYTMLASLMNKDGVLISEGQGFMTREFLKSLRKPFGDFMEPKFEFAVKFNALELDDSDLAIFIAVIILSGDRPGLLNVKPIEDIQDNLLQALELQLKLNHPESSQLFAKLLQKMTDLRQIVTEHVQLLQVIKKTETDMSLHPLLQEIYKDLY
Assay: Transactivation activity at Gal4 fused […] human PPARgamma LBD expressed in HEK293 cells after 24 hrs by luciferase reporter gene assay
parameter: log10 EC50 (log10 of the value in nM)
Recorded EC50 (log10, nM)

Reference set, count: 5
CN(CCOc1ccc(/C=C2\SC(=O)NC2=O)cc1)c1nc2ccccc2[nH]1    3.53
CCN(CCOc1ccc(/C=C2\SC(=O)NC2=O)cc1)c1ccccn1    2.56
CCN(CCOc1ccc(CC2SC(=O)NC2=O)cc1)c1nc2ccccc2s1 (stereo unspecified)    1.72
CCN(CCOc1ccc(/C=C2\SC(=O)NC2=O)cc1)c1nc2ccccc2s1    2.91
O=C1NC(=O)/C(=C/c2ccc(OCCNc3nc4ccccc4s3)cc2)S1    1.72

**Q:** Which log10 EC50 value is on record for CN(CCOc1ccc(/C=C2\SC(=O)NC2=O)cc1)c1nccs1 ?
**A:** 2.85
